Biological target: T1, 4H850-bA
T1 chain: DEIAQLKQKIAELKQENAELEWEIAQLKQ
Assay: two-hybrid library CCNG1;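 also: natural log of median RNA to DNA barcode read ratio; higher means stronger binding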
MEASURED_METRIC: interaction score

BINDER | MEASURED_METRIC | QUANTITATIVE_RESULT
DKNAQLEQKIAELKQENAELEWKIAQLKQ [4H3414-bA] | interaction score | -0.866

[a] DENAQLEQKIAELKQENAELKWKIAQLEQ [4H1373-bA]
[b] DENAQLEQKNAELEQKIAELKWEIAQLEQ [4H1449-bA]
[c] DKNAQLEQEIAELEQKNAELKWEIAQLEQ [4H3129-bA]
[d] DKNAQLEQEIAELKQKIAELEWENAQLKQ [4H3172-bA]
[e] DEIAQLKQKIAELKQENAELEWEIAQLKQ [4H850-bA]
## Task Please list these in order of increasing interaction score. Thank you! Give your ranking as a list of the labels in the requested order.
## Result b, d, a, c, e
(b: -0.723, d: -0.244, a: -0.104, c: 0.0228, e: 0.428)
